Target: trypsin, type IX from porcine pancreas (Sus scrofa)
Sequence (P00761 9-231): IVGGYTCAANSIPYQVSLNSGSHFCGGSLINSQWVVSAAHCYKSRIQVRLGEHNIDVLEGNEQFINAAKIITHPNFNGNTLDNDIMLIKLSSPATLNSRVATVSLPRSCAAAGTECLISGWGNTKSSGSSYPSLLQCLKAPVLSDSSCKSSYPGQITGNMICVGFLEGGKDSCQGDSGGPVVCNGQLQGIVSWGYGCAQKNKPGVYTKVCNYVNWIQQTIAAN
assay_endpoint: pIC50
Field pIC50 (float): negative decimal logarithm of the concentration in molar.

The measured pIC50 associated with CC(C)NC1=CC(=O)C(c2ccccc2)=C(CC(=O)NCc2ccc(C(=N)N)cc2)C1=O reads 6.96

###

Biological target: recombinant soluble tissue factor and recombinant human factor VIIa (TF-VIIA) (Homo sapiens, UniProt P08709)
Construct: conversion of coagulation factor VII to VIIa by Xa; (VIIa); soluble TF made in house in E. coli
Sequence (P08709 213-466 limits assumed): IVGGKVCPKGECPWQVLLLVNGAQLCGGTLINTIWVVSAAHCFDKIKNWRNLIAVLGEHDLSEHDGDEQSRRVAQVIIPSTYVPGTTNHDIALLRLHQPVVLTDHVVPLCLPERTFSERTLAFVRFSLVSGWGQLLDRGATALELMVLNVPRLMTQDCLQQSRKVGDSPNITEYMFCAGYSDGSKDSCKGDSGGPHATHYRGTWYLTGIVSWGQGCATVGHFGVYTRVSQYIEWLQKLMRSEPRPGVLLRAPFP
Sequence (P08709 61-212 limits assumed): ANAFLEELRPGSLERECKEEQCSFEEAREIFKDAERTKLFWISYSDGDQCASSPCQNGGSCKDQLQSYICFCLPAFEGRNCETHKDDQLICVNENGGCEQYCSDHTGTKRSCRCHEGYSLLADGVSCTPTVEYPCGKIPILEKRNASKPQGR
Sequence (P13726 33-251 partner limits assumed): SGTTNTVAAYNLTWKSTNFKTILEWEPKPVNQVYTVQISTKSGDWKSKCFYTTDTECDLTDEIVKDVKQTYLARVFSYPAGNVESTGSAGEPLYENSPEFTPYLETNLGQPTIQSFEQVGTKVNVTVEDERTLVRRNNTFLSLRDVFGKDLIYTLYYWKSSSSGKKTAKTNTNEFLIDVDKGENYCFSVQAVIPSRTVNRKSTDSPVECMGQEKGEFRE
Assay: TF-VIIa Assay
Settings: chromogenic substrate N-Methylsulfonyl-D-phe-gly-arg-p-nitroaniline, 60 min room temperature, OD 405 nm
assay_endpoint: IC50 (nM)
Write down the numeric answer in nM and omit the unit.

Lookup result for N=C(N)c1ccc(CNC(=O)CC2=C(c3ccccc3)C(=O)C=C(NCCc3ccccc3)C2=O)cc1 ; measured IC50: 1300
